- experimental-system: human TAS2R14 (Homo sapiens)
- Construct: expressed in transfected cells; host or cells: HEK293T-Gα16gust44
- Sequence (Q9NYV8 whole entry): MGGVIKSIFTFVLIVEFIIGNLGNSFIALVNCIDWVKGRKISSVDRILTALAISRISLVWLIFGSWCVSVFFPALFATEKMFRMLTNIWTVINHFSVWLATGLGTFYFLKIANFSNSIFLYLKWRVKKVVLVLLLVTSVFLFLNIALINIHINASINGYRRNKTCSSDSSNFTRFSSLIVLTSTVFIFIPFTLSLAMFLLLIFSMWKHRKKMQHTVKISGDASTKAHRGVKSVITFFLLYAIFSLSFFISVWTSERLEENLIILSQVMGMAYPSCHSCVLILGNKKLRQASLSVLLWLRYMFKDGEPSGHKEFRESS
- test-details: Calcium imaging assay (FLIPR), HEK293T-Gα16gust44 cells transfected with human TAS2R14
- Type: cell-based
- applied-conditions: TAS2R14 trace; Time (s) 104.797 (Chenodeoxycholic Acid 104.781)
Measured RLU by item
assay-readout: RLU (RLU)

C[C@H](CCC(=O)NCC(=O)O)[C@H]1CC[C@H]2[C@@H]3[C@H](O)C[C@@H]4C[C@H](O)CC[C@]4(C)[C@H]3C[C@H](O)[C@]12C [Glycocholic Acid, glycocholic acid]    919.127
C[C@H](CCC(=O)O)[C@H]1CC[C@H]2[C@@H]3[C@H](O)C[C@@H]4C[C@H](O)CC[C@]4(C)[C@H]3CC[C@]12C [Chenodeoxycholic Acid, chenodeoxycholic acid]    599.892
C[C@H](CCC(=O)O)[C@H]1CC[C@H]2[C@@H]3[C@H](O)C[C@@H]4C[C@H](O)CC[C@]4(C)[C@H]3C[C@H](O)[C@]12C [Cholic Acid, cholic acid]    1232.88
C[C@H](CCC(=O)NCCS(=O)(=O)O)[C@H]1CC[C@H]2[C@@H]3CC[C@@H]4C[C@H](O)CC[C@]4(C)[C@H]3CC[C@]12C [Taurolithocholic Acid, taurolithocholic acid]    347.898
C[C@H](CCC(=O)NCCS(=O)(=O)O)[C@H]1CC[C@H]2[C@@H]3[C@H](O)C[C@@H]4C[C@H](O)CC[C@]4(C)[C@H]3C[C@H](O)[C@]12C [Taurocholic Acid, taurocholic acid]    895.487

====

- experimental-system: human TAS2R1 (Homo sapiens)
- Construct: expressed in transfected cells; host or cells: HEK293T-Gα16gust44
- test-details: Calcium imaging assay (FLIPR), HEK293T-Gα16gust44 cells transfected with human TAS2R1
- Format: cell-based
- applied-conditions: Time 110.781 s
assay-readout: RLU

C[C@H](CCC(=O)NCCS(=O)(=O)O)[C@H]1CC[C@H]2[C@@H]3CC[C@@H]4C[C@H](O)CC[C@]4(C)[C@H]3CC[C@]12C [Taurolithocholic Acid, taurolithocholic acid]    574.352 RLU
C[C@H](CCC(=O)NCCS(=O)(=O)O)[C@H]1CC[C@H]2[C@@H]3[C@H](O)C[C@@H]4C[C@H](O)CC[C@]4(C)[C@H]3C[C@H](O)[C@]12C [Taurocholic Acid, taurocholic acid]    359.901 RLU
C[C@H](CCC(=O)NCC(=O)O)[C@H]1CC[C@H]2[C@@H]3[C@H](O)C[C@@H]4C[C@H](O)CC[C@]4(C)[C@H]3C[C@H](O)[C@]12C [Glycocholic Acid, glycocholic acid]    477.052 RLU
C[C@H](CCC(=O)O)[C@H]1CC[C@H]2[C@@H]3CC[C@@H]4C[C@H](O)CC[C@]4(C)[C@H]3C[C@H](O)[C@]12C [Deoxycholic Acid, deoxycholic acid]    378.853 RLU

====

- experimental-system: human TAS2R1 (Homo sapiens, UniProt Q9NYW7)
- Construct: expressed in transfected cells; host or cells: HEK293T-Gα16gust44
- Sequence (Q9NYW7 whole entry): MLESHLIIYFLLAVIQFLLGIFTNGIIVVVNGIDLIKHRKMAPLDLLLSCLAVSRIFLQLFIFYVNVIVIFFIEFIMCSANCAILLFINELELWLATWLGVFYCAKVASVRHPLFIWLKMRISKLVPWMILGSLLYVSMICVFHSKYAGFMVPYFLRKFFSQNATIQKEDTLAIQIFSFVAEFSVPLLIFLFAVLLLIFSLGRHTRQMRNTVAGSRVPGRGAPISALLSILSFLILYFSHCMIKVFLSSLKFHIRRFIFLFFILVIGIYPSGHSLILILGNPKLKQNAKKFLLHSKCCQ
- test-details: Calcium imaging assay (FLIPR), HEK293T-Gα16gust44 cells transfected with human TAS2R1
- Assay type: cell-based
- applied-conditions: Time 26.796 s
Measured RLU by item
assay-readout: RLU (RLU)

C[C@H](CCC(=O)O)[C@H]1CC[C@H]2[C@@H]3[C@H](O)C[C@@H]4C[C@H](O)CC[C@]4(C)[C@H]3CC[C@]12C    276.637
C[C@H](CCC(=O)O)[C@H]1CC[C@H]2[C@@H]3CC[C@@H]4C[C@H](O)CC[C@]4(C)[C@H]3CC[C@]12C    217.83
C[C@H](CCC(=O)O)[C@H]1CC[C@H]2[C@@H]3[C@@H](O)C[C@@H]4C[C@H](O)CC[C@]4(C)[C@H]3CC[C@]12C    220.014
C[C@H](CCC(=O)O)[C@H]1CC[C@H]2[C@@H]3[C@H](O)C[C@@H]4C[C@H](O)CC[C@]4(C)[C@H]3C[C@H](O)[C@]12C    179.01
